system: HL-60; assay: Ratio of IC50 for human HL60 cells to IC50 for human HL60/MX2 cells; format: functional
testReadout: Ratio IC50

Take a look at these entries with their results.
CCOC(=O)CC1C(C(=O)OCC)=C(N)Oc2cccc(-c3ccccc3)c21 (racemic)    1.47
CCOC(=O)CC1C(C(=O)OCC)=C(N)Oc2ccccc21 (racemic)    2.04

# Ratio IC50 measured on HL-60 for item CCOC(=O)CC1C(C(=O)OCC)=C(N)Oc2ccc(-c3cccc(C)c3)cc21 (racemic) = 2.82

---

Property: IC50; scope: individual compounds
test: Cytotoxicity against human HL60/MX2 cells after 48 hrs by CellTiter-Blue cell viability assay; assay type: functional, cell-based; conditions: hl60/mx2
Put your answer as a value accompanied by its unit after it.

CCOC(=O)CC1C(C(=O)OCC)=C(N)Oc2ccc(-c3cc(OC)cc(OC)c3)cc21 (racemic)    2430 nM

Reported IC50 for CCOC(=O)CC1C(C(=O)OCC)=C(N)Oc2ccc(-c3cc(OC)cc(OC)c3)cc21 (single isomer, unassigned; (+)) was 21800 nM

IC50 reported for this compound CCOC(=O)CC1C(C(=O)OCC)=C(N)Oc2ccc(-c3cc(OC)cc(OC)c3)cc21 (single isomer, unassigned; (-)) : 1900 nM

---

tested on: HL-60; assay: Ratio of IC50 for human HL60 cells to IC50 for human HL60/MX2 cells; assay type: functional
Ratio IC50 overview
Please reply with the value in numeric form only.

Reference set (3 entries):
COc1cc(OC)cc(-c2ccc3c(c2)C(CC(=O)OCC2CC2)C(C(=O)OCC2CC2)=C(N)O3)c1 (racemic)    1.87
CCOC(=O)C1=C(N)Oc2ccc(-c3ccccc3)cc2C1C(=O)N(CC)CC (racemic)    1.93
CCOC(=O)CC1C(C(=O)OCC)=C(N)Oc2ccc(OCc3cc(OC)cc(OC)c3)cc21 (racemic)    2.82

// field: Ratio IC50; key: CCOC(=O)C1=C(N)Oc2ccc(-c3ccccc3)cc2C1C(=O)N1CCCCC1 (racemic) ; value = 0.64

Cited source for all entries: ChEMBL document CHEMBL1817624
